# experimental target: Phosphodiesterase-5 enzyme (PDE 5) (Homo sapiens)
pIC50: −log10 of the molar value.
Classification field: enter met for pIC50 values not below 8, not met for values below it.

- compound: "CCCc1nn(C)c2c(=O)[nH]c(-c3cc(S(=O)(=O)NC4CCCCC4)ccc3OCC)nc12"
  experimental target: "Phosphodiesterase-5 enzyme (PDE 5) (Homo sapiens)"
  answer label: "met"
- compound: "CCOc1ccc(S(=O)(=O)NCCC2CCCN2C)cc1-c1nc2c(CC(C)C)nn(C)c2c(=O)[nH]1 (centres unmarked)"
  experimental target: "Phosphodiesterase-5 enzyme (PDE 5) (Homo sapiens)"
  answer label: "not met"
- compound: "CCOc1ccc(S(=O)(=O)Nc2cccnc2)cc1-c1nc2c(CC(C)C)nn(C)c2c(=O)[nH]1"
  experimental target: "Phosphodiesterase-5 enzyme (PDE 5) (Homo sapiens)"
  answer label: "met"
- compound: "CCCc1nn(C)c2c(=O)[nH]c(-c3cc(S(=O)(=O)Nc4ccc(C(C)C)cc4)ccc3OCC)nc12"
  experimental target: "Phosphodiesterase-5 enzyme (PDE 5) (Homo sapiens)"
  answer label: "not met"
- compound: "CCCOc1ccc(S(=O)(=O)Nc2cccnc2)cc1-c1nc2c(CCC)nn(C)c2c(=O)[nH]1"
  experimental target: "Phosphodiesterase-5 enzyme (PDE 5) (Homo sapiens)"
  answer label: "met"

Ask | hey, is pIC50 for this one >= 8? CCCc1nn(C)c2c(=O)[nH]c(-c3cc(S(=O)(=O)Nc4ccc(C(C)(C)C)cc4)ccc3OCC)nc12
Reply | not met

Ask | What about this compound? CCCc1nn(C)c2c(=O)[nH]c(-c3cc(S(=O)(=O)Nc4ccc(F)cc4)ccc3OCC)nc12
Reply | not met

Ask | What about this compound? CCCc1nn(C)c2c(=O)[nH]c(-c3cc(S(=O)(=O)NCCC4CCCN4C)ccc3OCC)nc12 (centres unmarked)
Reply | not met

Ask | What about this compound? CCCOc1ccc(S(=O)(=O)NC(C)C)cc1-c1nc2c(CCC)nn(C)c2c(=O)[nH]1
Reply | met

Ask | What about this compound? CCCc1nn(C)c2c(=O)[nH]c(-c3cc(S(=O)(=O)Nc4ccncc4)ccc3OCC)nc12
Reply | met

Ask | What about this compound? CCCc1nn(C)c2c(=O)[nH]c(-c3cc(S(=O)(=O)NC(C)CC)ccc3OCC)nc12 (centres unmarked)
Reply | met

* * *

# experimental target: Phosphodiesterase-5 enzyme (PDE 5) (Homo sapiens, UniProt O76074)
Entries and their IC50 values follow.

Solved cases below.
- compound: "CCCOc1ccc(S(=O)(=O)NCCC2CCCN2C)cc1-c1nc2c(CCC)nn(C)c2c(=O)[nH]1 (stereo not drawn)"
  measured quantity: "IC50"
  reported: "8.85 nM"
- compound: "CCOc1ccc(S(=O)(=O)NCc2ccccc2)cc1-c1nc2c(CC(C)C)nn(C)c2c(=O)[nH]1"
  measured quantity: "IC50"
  reported: "10.8 nM"
- compound: "CCCc1nn(CC)c2c(=O)[nH]c(-c3cc(S(=O)(=O)Nc4cccnc4)ccc3OCC)nc12"
  measured quantity: "IC50"
  reported: "8.7 nM"
- compound: "CCCOc1ccc(S(=O)(=O)NCc2ccccc2)cc1-c1nc2c(CCC)nn(C)c2c(=O)[nH]1"
  measured quantity: "IC50"
  reported: "12.7 nM"
- compound: "CCCOc1ccc(S(=O)(=O)NCC2CCCN2C)cc1-c1nc2c(CCC)nn(C)c2c(=O)[nH]1 (stereo not drawn)"
  measured quantity: "IC50"
  reported: "14.2 nM"

Ask | # get_value(readout= IC50, system= Phosphodiesterase-5 enzyme (PDE 5) (Homo sapiens, UniProt O76074)) for CCCc1nn(C)c2c(=O)[nH]c(-c3cc(S(=O)(=O)Nc4cccnc4)ccc3OCC)nc12
Reply | 8.07 nM
